Assay: Aqueous solubility of roxithromycin (pH, buffer, ethanol)
Assay type: physicochemical
Conditions: citrate buffer, 25 °C, pH 5, aqueous buffer, thermodynamic from solid, 100 mM citrate, pH 5
Measurement Label: solubility at 24 h (µg/mL)
Just the number please, in µg/mL, no unit attached.

Request: Tell me measured solubility at 24 h for `CC[C@H]1OC(=O)[C@H](C)[C@@H](O[C@H]2C[C@@](C)(OC)[C@@H](O)[C@H](C)O2)[C@H](C)[C@@H](O[C@@H]2O[C@H](C)C[C@H](N(C)C)[C@H]2O)[C@](C)(O)C[C@@H](C)/C(=N\OCOCCOC)[C@H](C)[C@@H](O)[C@]1(C)O` please.
Response: 2770

* * *

Assay: Aqueous solubility of roxithromycin (pH, buffer, ethanol)
Format: physicochemical
Conditions: citrate buffer, 25 °C, pH 5, aqueous buffer, thermodynamic from solid, 20 mM citrate, pH 5
Measurement Label: solubility at 24 h (µg/mL)
Supply the numeric figure in µg/mL, leaving out any unit text.

Request: Please indicate solubility at 24 h recorded for CC[C@H]1OC(=O)[C@H](C)[C@@H](O[C@H]2C[C@@](C)(OC)[C@@H](O)[C@H](C)O2)[C@H](C)[C@@H](O[C@@H]2O[C@H](C)C[C@H](N(C)C)[C@H]2O)[C@](C)(O)C[C@@H](C)/C(=N\OCOCCOC)[C@H](C)[C@@H](O)[C@]1(C)O [roxithromycin]
Response: 3540

* * *

Assay: Aqueous solubility of roxithromycin (pH, buffer, ethanol)
Format: physicochemical
Conditions: citrate buffer, 25 °C, pH 4, aqueous buffer, thermodynamic from solid, 200 mM citrate, pH 4
Measurement Label: solubility at 24 h
Write the quantity with the unit trailing the number.

Request: Using known records, supply solubility at 24 h for `CC[C@H]1OC(=O)[C@H](C)[C@@H](O[C@H]2C[C@@](C)(OC)[C@@H](O)[C@H](C)O2)[C@H](C)[C@@H](O[C@@H]2O[C@H](C)C[C@H](N(C)C)[C@H]2O)[C@](C)(O)C[C@@H](C)/C(=N\OCOCCOC)[C@H](C)[C@@H](O)[C@]1(C)O`
Response: 2.74 mg/mL

* * *

Experiment: Aqueous solubility of roxithromycin (pH, buffer, ethanol)
Format: physicochemical
Conditions: citrate buffer, 25 °C, pH 6, aqueous buffer, thermodynamic from solid, 50 mM citrate, pH 6
Measurement Label: solubility at 24 h (µg/mL)
Report only the number, with the unit µg/mL understood.

Request: Give a short answer stating reported solubility at 24 h for CC[C@H]1OC(=O)[C@H](C)[C@@H](O[C@H]2C[C@@](C)(OC)[C@@H](O)[C@H](C)O2)[C@H](C)[C@@H](O[C@@H]2O[C@H](C)C[C@H](N(C)C)[C@H]2O)[C@](C)(O)C[C@@H](C)/C(=N\OCOCCOC)[C@H](C)[C@@H](O)[C@]1(C)O [roxithromycin] .
Response: 2760

* * *

Test: Aqueous solubility of roxithromycin (pH, buffer, ethanol)
Format: physicochemical
Details: phosphate buffer with ethanol co-solvent, 25 °C, pH 7, aqueous with cosolvent or surfactant or cyclodextrin, thermodynamic from solid, pH 7, 10 mM phosphate, 5% ethanol
Protocol: The solutions were syringe-filtered and analyzed by HPLC for [roxithromycin]. Roxithromycin Potency was assayed by a reverse-phase HPLC method that meets the requirements of the European Pharmacopeia (EP) Monograph for roxithromycin. Solution pH values were determined per USP <791> and solution osmolality values were determined per USP <785>. […]
Measurement Label: solubility at 24 h

Request: Consider the compound CC[C@H]1OC(=O)[C@H](C)[C@@H](O[C@H]2C[C@@](C)(OC)[C@@H](O)[C@H](C)O2)[C@H](C)[C@@H](O[C@@H]2O[C@H](C)C[C@H](N(C)C)[C@H]2O)[C@](C)(O)C[C@@H](C)/C(=N\OCOCCOC)[C@H](C)[C@@H](O)[C@]1(C)O [roxithromycin] . State its measured solubility at 24 h.
Response: 1800 µg/mL

The values you see were collected from patent US20070149465A1.
